Read-out: Low-density lipoprotein receptor (LDLR), LDLR (gene 3949)
Test: BSK_CASM3C_LDLR: BioMAP Diversity Plus: CASM3C Assay for Low-density lipoprotein receptor (LDLR) Biomarker Activity (AID 2283045);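 note: LDLR protein level on the cell surface quantified by ELISA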
Conditions: primary human coronary artery smooth muscle cells; actives raise or lower the signal
Active and inactive are the calls of the source. Rule for the calls: active = hit-call score of the fitted dose curve at least 0.9, where 1 is the maximum; inactive = score below 0.9.
Assay Endpoint: AC50

Mol Smiles | AC50
COc1ccc2cc(S(=O)(=O)N[C@H](CC(=O)N[C@H](Cc3ccc(CN4[C@H](C)CCC[C@@H]4C)cc3)C(=O)N(C)C(C)C)c3ccc4c(c3)OCO4)ccc2c1 | 0.966 µM (active)
CC(C)(c1cc(Br)c(O)c(Br)c1)c1cc(Br)c(O)c(Br)c1 | inactive
O=C(O)Cn1c(=O)n(Cc2ccc(Br)cc2F)c(=O)c2ccc(Cl)cc21 | inactive
Cc1c2ccccc2c(C)c2c1ccc1ccccc12 | inactive
O=c1c(-c2ccc(O)cc2)coc2cc(O)cc(O)c12 | inactive

Task: State its AC50: `CC(=O)N1CCN(c2ccc(OC[C@H]3CO[C@](Cn4ccnc4)(c4ccc(Cl)cc4Cl)O3)cc2)CC1`
Result: 2.94 µM (active)

Task: State its AC50: `CC/C(=C(/CC)c1ccc(O)cc1)c1ccc(O)cc1`
Result: 8.57 µM (active)

Task: State its AC50: `c1ccc2n[nH]nc2c1`
Result: inactive

Task: State its AC50: `CCCC(=O)OCCC(C)C`
Result: inactive

Task: State its AC50: `CCCCCCCCCCCC[N+](C)(C)C`
Result: 21.2 µM (active)

Task: State its AC50: `CN1C(=O)CC[C@H]1c1cccnc1`
Result: inactive

---

Read-out: Alpha-fetoprotein (AFP) gene, AFP (gene 174)
Assay: LTEA_HepaRG_AFP: Life Technologies and Expression Analysis (LTEA) Assay for Alpha-fetoprotein (AFP) gene using HepaRG (AID 2283472)
Settings: mRNA level, 48 h; actives raise or lower the signal
Active and inactive are the calls of the source. The calls were made as follows: active = hit-call score of the fitted dose curve at least 0.9, where 1 is the maximum; inactive = score below 0.9.
Pick from active, inactive when you respond.

Mol Smiles | Class
Cc1ccc2oc(CN(Cc3ccccc3)C(=O)Nc3c(F)cc(F)cc3F)c(-c3ccc(Cl)cc3)c2c1 | active
Oc1ccccc1 | inactive

# ---- query compound ----
Task: Hi team, can someone confirm the assay call for `O=C1CCC(C2CCCCC2)CC1` ?
Result: inactive

---

Test: BSK_hDFCGF_Proliferation: Cell Proliferation Assessment in the BioMAP Diversity Plus: hDFCGF Assay (AID 2283059);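 note: curves fitted for both rise and fall of signal versus DMSO baseline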
Conditions: primary human foreskin fibroblasts
Active and inactive are the calls of the source. The calls were made as follows: active = hit-call score of the fitted dose curve at least 0.9, where 1 is the maximum; inactive = score below 0.9.
Pick from active, inactive when you respond.

Illustrative cases are given below, each with its answer.
Mol Smiles | Class
Cc1ccc(C(C)C)cc1 | inactive
CCCCCCCCCC(=O)O | inactive
CCCCCCCCOc1ccc(C(=O)c2ccccc2)c(O)c1 | active

Task: Hi team, can someone confirm the assay call for `CCO[Si](CCCNC(N)=O)(OCC)OCC` ?
Result: inactive

Task: Hi team, can someone confirm the assay call for `CC(C)(C)c1csc(-c2cc3cc(OCc4ccccc4CC(=O)O)ccc3o2)n1` ?
Result: active

Task: Hi team, can someone confirm the assay call for `CCCCOC(=O)c1ccc(O)cc1` ?
Result: active

Task: Hi team, can someone confirm the assay call for `CC[C@H](NC(=O)c1cc(F)ccc1NS(=O)(=O)c1cccc2cccnc12)c1ccccc1` ?
Result: active

---

Experiment: ATG_M_32_CIS: Attagene CIS-FACTORIAL HepG2 Assay for M32 Transcription Factor (Internal Marker) (AID 2282949);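 note: background control marker of the multiplexed CIS panel rather than a real target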
Details: HepG2 Attagene cis-factorial M32 reporter, mRNA; actives raise or lower the signal
Calls of active or inactive are those of the source. Rule for the calls: active = hit-call score of the fitted dose curve at least 0.9, where 1 is the maximum; inactive = score below 0.9.

Mol Smiles | outcome
Cc1cccc2ccccc12 | inactive
CCCCCCCCCCCC[N+](C)(C)C | inactive
Cc1ccc(C(C)C)cc1 | inactive

---

Experiment: APR_HepG2_CellCycleArrest_72hr: Apredica 72-hour HepG2 Assay for Cell Cycle Arrest (AID 2282914)
Settings: high-content imaging, actives raise or lower the signal
The source made the active and inactive calls. Rule for the calls: active = hit-call score of the fitted dose curve at least 0.9, where 1 is the maximum; inactive = score below 0.9.
Pick from T (active), F (inactive) when you respond.

Illustrative cases are given below, each with its answer.
Mol Smiles | Class
Cc1ncc(CO)c(CO)c1O | F
O=C1c2ccccc2C(=O)N1CCc1noc(-c2ccc(CN3CCCCCC3)s2)n1 | F
CC[C@H](NC(=O)c1cc(F)ccc1NS(=O)(=O)c1cccc2cccnc12)c1ccccc1 | F
CCCCCCCCCCCO | F
CN(C)C(=O)C1(N2CCCCC2)CCN(CC[C@@]2(c3ccc(Cl)c(Cl)c3)CN(C(=O)c3ccccc3)CCO2)CC1 | T
CCCC(=O)OCCC(C)C | F
c1ccc2ccccc2c1 | T

# ---- query compound ----
Task: Hi team, can someone confirm the assay call for `CC(=O)N1CCN(c2ccc(OC[C@H]3CO[C@](Cn4ccnc4)(c4ccc(Cl)cc4Cl)O3)cc2)CC1` ?
Result: F

---

Test: APR_HepG2_MicrotubuleCSK_24hr: Apredica 24-hour HepG2 Assay for Microtubule CSK Stabilty (AID 2282909)
Conditions: HepG2 microtubule cytoskeleton imaging, actives raise or lower the signal
Activity calls are given as the source filed them. The calls were made as follows: active = hit-call score of the fitted dose curve at least 0.9, where 1 is the maximum; inactive = score below 0.9.
Pick from T for active, F for inactive when you respond.

Illustrative cases are given below, each with its answer.
Compound | Class
c1ccc(C[n+]2cccc3ccccc32)cc1 | T
O=C1CCC(C2CCCCC2)CC1 | F
Cc1oc2c(NC(=O)c3c(Cl)cccc3Cl)cccc2c1C(C)(C)O | F
CCCCCCCCCCCCO | F
CCN(Cc1cccnc1)C(=O)c1cccc(Cl)c1[C@]1(C)C(=O)N(Cc2ccc(OC)cc2OC)c2ccc(Cl)cc21 | F
COCC(C)OCC(C)OCC(C)O (stereo not drawn) | F
COc1cccc([C@H](O)C2CCN(CCc3ccc(F)cc3)CC2)c1OC | F

# ---- query compound ----
Task: Hi team, can someone confirm the assay call for `CC(C)(C)c1cc(/C=C2\SC(N)=NC2=O)cc(C(C)(C)C)c1O` ?
Result: T

---

Read-out: Broad substrate specificity ATP-binding cassette transporter ABCG2 (Homo sapiens)
Experiment: LTEA_HepaRG_ABCG2: Life Technologies and Expression Analysis (LTEA) Assay for ABC Transporter (ABCG2) using HepaRG (AID 2283465)
Settings: mRNA level, 48 h; actives raise or lower the signal
Calls of active or inactive are those of the source. How the source made its calls: active means hit-call score of the fitted dose curve at least 0.9, where 1 is the maximum; inactive means score below 0.9.
Pick from 1.0 = active, 0.0 = inactive when you respond.

Illustrative cases are given below, each with its answer.
Molecule | Class
CCCCCCCCCCCCO | 0.0
O=C(Nc1ccc(Cl)cc1)Nc1ccc(Cl)c(Cl)c1 | 1.0
Oc1ccc2ccccc2c1 | 0.0
COCC(C)OCC(C)OCC(C)O (configuration not stated) | 0.0

Task: Hi team, can someone confirm the assay call for `O=c1[nH]sc2ccccc12` ?
Result: 0.0

Task: Hi team, can someone confirm the assay call for `CCCCCCCCCCCO` ?
Result: 0.0

Task: Hi team, can someone confirm the assay call for `c1ccc2ccccc2c1` ?
Result: 0.0

Task: Hi team, can someone confirm the assay call for `CCOC(=O)O[C@H](C)OC(=O)c1ccc2c(c1)cc(C(=O)NC1CCN(C(C)C)CC1)n2Cc1cc(-c2ccc(Cl)s2)on1` ?
Result: 0.0

Task: Hi team, can someone confirm the assay call for `Clc1cc(Cl)c2c(c1)N=C1CCCCCN1C2` ?
Result: 0.0

---

Read-out: Monokine induced gamma interferon (MIG), CXCL9 (gene 4283)
Assay: BSK_3C_MIG: BioMAP Diversity Plus: 3C Assay for Monokine induced gamma interferon (MIG) Biomarker Activity (AID 2283021)
Settings: primary human endothelial cells (HUVEC); actives raise or lower the signal
Active and inactive are the calls of the source. How the source made its calls: active means hit-call score of the fitted dose curve at least 0.9, where 1 is the maximum; inactive means score below 0.9.
Pick from label 1 = active, label 0 = inactive when you respond.

Mol Smiles | Class
COc1cccc([C@H](O)C2CCN(CCc3ccc(F)cc3)CC2)c1OC | label 0
Cc1cc(F)ccc1-c1cc(N2CC[C@@H](O)[C@H]2CO)ncc1N(C)C(=O)C(C)(C)c1cc(C(F)(F)F)cc(C(F)(F)F)c1 | label 1
OCCO | label 0
CC1=CC(=O)/C(=C(/C)O)C(=O)O1 | label 0
CC(C)(C)c1csc(-c2cc3cc(OCc4ccccc4CC(=O)O)ccc3o2)n1 | label 1
C[C@]12CC[C@@H]3c4ccc(O)cc4CC[C@H]3[C@@H]1CC[C@H]2O | label 0

Task: Hi team, can someone confirm the assay call for `NC(=O)c1nc(-c2cccc(-c3cc(F)ccc3OCC(F)(F)C(F)(F)F)c2)n[nH]1` ?
Result: label 1

Task: Hi team, can someone confirm the assay call for `Clc1ccccc1C(c1ccccc1)(c1ccccc1)n1ccnc1` ?
Result: label 1

Task: Hi team, can someone confirm the assay call for `CCCCCCCCOc1ccc(C(=O)c2ccccc2)c(O)c1` ?
Result: label 0

Task: Hi team, can someone confirm the assay call for `CCCCCCCCOC(=O)c1cc(O)c(O)c(O)c1` ?
Result: label 1

Task: Hi team, can someone confirm the assay call for `O=C(O)c1ccccc1C(=O)OCc1ccccc1` ?
Result: label 0
